pKi: −log10 of the molar value.
// cross-source set; read-out = pKi; system = UniProt:P08254
Quantity kind: pKi

>>> df
                                   compound   target_system  quantity_kind  value_observed
0  CC(C)C[C@@]1([C@@H](CCN2C(=O)c3ccccc3C2=O)C(=O)NO)CCN(Cc2ccccc2)C1=O (relative stereo)  UniProt:P08254            pKi            5.71
1  CNC(=O)[C@@H](NC(=O)[C@H](CCCc1ccc(Cl)cc1)CC(=O)NO)C(C)(C)C  UniProt:P08254            pKi            8.58
2  CC(C)C[C@@H](NC(=O)OCc1ccccc1)[C@H](Cc1ccccc1)C(=O)Nc1n[nH]c(=S)s1 (relative stereo)  UniProt:P08254            pKi            5.77
3  COc1ccc(S(=O)(=O)CC(O)(CNC(=O)C2CCCC2)C(=O)NO)cc1 (centres unmarked)  UniProt:P08254            pKi            6.46
4  CC(C)(C)C(CC(=O)Nc1n[nH]c(=S)s1)NC(=O)OCc1ccccc1 (centres unmarked)  UniProt:P08254            pKi            4.95
5  O=C(NC(COCc1ccccc1)C(=O)Nc1n[nH]c(=S)s1)OCc1ccccc1 (centres unmarked)  UniProt:P08254            pKi            5.09
6  CCC[C@H](NC(=O)OCc1ccccc1)C(=O)Nc1n[nH]c(=S)s1  UniProt:P08254            pKi            5.64
7  CCOC(=O)C(C(=O)Nc1n[nH]c(=S)s1)C(C)(C)C (centres unmarked)  UniProt:P08254            pKi            5.30
